// provenance: ChEMBL document CHEMBL4041467

Assay: Protein binding in human plasma at 1 ug/ml by LC-MS/MS analysis
Type: ADME, cell-free
Conditions: read-out: PPB (converted)
Can you tell me fraction unbound at 1 ug/ml for the items I'm about to list?
One number for each entry.

* C=CCO[C@]1(C)C[C@@H](C)NC(=O)[C@H](C)[C@@H](O)[C@](C)(O)[C@@H](CC)OC(=O)[C@H](C)[C@@H](OC(=O)CCNCCNc2cc3c(=O)c(C(=O)O)cn(C4CC4)c3cc2Cl)[C@H](C)[C@H]1O[C@@H]1O[C@H](C)C[C@H](N(C)C)[C@H]1O | 0.51
* CC[C@H]1OC(=O)[C@H](C)[C@@H](OC(=O)CCNCCNc2cc3c(=O)c(C(=O)O)cn(C4CC4)c3cc2Cl)[C@H](C)[C@@H](O[C@@H]2O[C@H](C)C[C@H](N(C)C)[C@H]2O)[C@](C)(OC/C=C/c2cnc3ccccc3c2)C[C@@H](C)NC(=O)[C@H](C)[C@@H](O)[C@]1(C)O | 0.4
* CC[C@H]1OC(=O)[C@H](C)[C@@H](O[C@H]2C[C@@](C)(OC)[C@@H](O)[C@H](C)O2)[C@H](C)[C@@H](O[C@@H]2O[C@H](C)C[C@H](N(C)C)[C@H]2O)[C@](C)(O)C[C@@H](C)CN(C)[C@H](C)[C@@H](O)[C@]1(C)O [AZITHROMYCIN] | 0.64

Proceeding to the next molecule to report its fraction unbound at 1 ug/ml.
Item CC[C@H]1OC(=O)[C@H](C)C(=O)[C@H](C)[C@@H](O[C@@H]2O[C@H](C)C[C@H](N(C)C)[C@H]2O)[C@](C)(OC)C[C@@H](C)C(=O)[C@H](C)[C@H]2N(CCCCn3cnc(-c4cccnc4)c3)C(=O)O[C@]12C [TELITHROMYCIN] has what recorded fraction unbound at 1 ug/ml?
0.5
